The values you see were collected from ChEMBL document CHEMBL4616619.

# MEASUREMENT PROTOCOL: Substrate activity at UDP-glucuronosyltransferase in cynomolgus monkey microsomes assessed as Vmax
# Assay type: ADME, Macaca fascicularis
# Vmax per record follows
// units = nmol/min/mg; emit number, no label

Solved cases below.
>  <COMPOUND>
CC(/C=C/c1cccc(Oc2ccc(F)cc2)c1)N(O)C(N)=O (stereo not drawn)

>  <Vmax / nmol/min/mg>
0.19

$$$$
>  <COMPOUND>
CC(c1cc2ccccc2s1)N(O)C(N)=O (stereo not drawn)

>  <Vmax / nmol/min/mg>
1.2

$$$$

Would you kindly look at the next entry?
# input Supply recorded Vmax for CC(C#Cc1cccc(Oc2ccc(F)cc2)c1)N(O)C(N)=O (stereo not drawn) here.
# output 0.05

* * *

# MEASUREMENT PROTOCOL: Stability in human liver microsomes assessed as compound metabolized at 25 uM after 30 mins in presence of NADPH by HPLC analysis
# Assay type: ADME, Microsome
# ASSAY SETUP: read-out: Drug metabolism
# metabolised at 0.5 h, 25 µM per record follows
// units = %; emit number, no label

>  <MOLECULE>
C#CC[C@@H](C(=O)N[C@H](/C=C/C(=O)OCC)CC1CCNC1=O)n1cccc(NC(=O)c2cc(C)on2)c1=O (some centres not stated)

>  <MEASURED METRIC>
metabolised at 0.5 h, 25 µM

>  <OBS VALUE>
40

$$$$

Would you kindly look at the next entry?
# input Supply recorded metabolised at 0.5 h, 25 µM for CCOC(=O)/C=C/[C@H](CC1CCNC1=O)NC(=O)[C@H](Cc1ccc(F)c(F)c1)n1cccc(NC(=O)c2cc(C)on2)c1=O (some centres not stated) here.
# output 81

* * *

# MEASUREMENT PROTOCOL: Cytotoxicity against human MT2 cells
# Format: cell-based
# CC50 per record follows

Solved cases below.
>  <CPD SMILES>
C#C[C@@]1(CO)C=C[C@H](n2cc(C)c(=O)[nH]c2=O)O1

>  <MEASURED METRIC>
CC50

>  <OBS VALUE>
> 256 µM

$$$$
>  <CPD SMILES>
Cc1cn([C@H]2C=C[C@@H](CO)O2)c(=O)[nH]c1=O

>  <MEASURED METRIC>
CC50

>  <OBS VALUE>
98 µM

$$$$

# input Supply recorded CC50 for Cc1cn([C@H]2C=C[C@@](C#N)(CO)O2)c(=O)[nH]c1=O here.
# output > 100 µM

* * *

# TARGET ENTITY: Amine oxidase [flavin-containing] A (Homo sapiens, UniProt P21397)
# Sequence (P21397 whole entry): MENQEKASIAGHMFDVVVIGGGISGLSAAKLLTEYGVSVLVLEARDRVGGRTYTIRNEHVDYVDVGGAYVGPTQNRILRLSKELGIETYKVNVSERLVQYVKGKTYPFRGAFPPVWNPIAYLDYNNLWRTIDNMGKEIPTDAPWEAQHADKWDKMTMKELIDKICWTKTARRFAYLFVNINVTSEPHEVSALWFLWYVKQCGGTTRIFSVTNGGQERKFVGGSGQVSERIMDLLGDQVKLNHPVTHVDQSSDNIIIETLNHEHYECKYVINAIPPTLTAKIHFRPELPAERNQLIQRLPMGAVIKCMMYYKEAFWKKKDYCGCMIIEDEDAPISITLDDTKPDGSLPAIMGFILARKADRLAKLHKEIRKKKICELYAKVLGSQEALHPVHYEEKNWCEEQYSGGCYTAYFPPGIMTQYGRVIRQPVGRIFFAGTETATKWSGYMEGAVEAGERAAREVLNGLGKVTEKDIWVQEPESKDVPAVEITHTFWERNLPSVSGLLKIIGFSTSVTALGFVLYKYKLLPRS
# MEASUREMENT PROTOCOL: Inhibition of human MAO-A
pIC50: −log10 of the molar value.
MEASURED METRIC: pIC50

# input Supply recorded pIC50 for C#CCN[C@@H]1CCc2ccc(OC(=O)N(C)CC)cc21 [LADOSTIGIL] here.
# output < 4.00

* * *

# TARGET ENTITY: Cholinesterase (Homo sapiens, UniProt P06276)
# Sequence (P06276 whole entry): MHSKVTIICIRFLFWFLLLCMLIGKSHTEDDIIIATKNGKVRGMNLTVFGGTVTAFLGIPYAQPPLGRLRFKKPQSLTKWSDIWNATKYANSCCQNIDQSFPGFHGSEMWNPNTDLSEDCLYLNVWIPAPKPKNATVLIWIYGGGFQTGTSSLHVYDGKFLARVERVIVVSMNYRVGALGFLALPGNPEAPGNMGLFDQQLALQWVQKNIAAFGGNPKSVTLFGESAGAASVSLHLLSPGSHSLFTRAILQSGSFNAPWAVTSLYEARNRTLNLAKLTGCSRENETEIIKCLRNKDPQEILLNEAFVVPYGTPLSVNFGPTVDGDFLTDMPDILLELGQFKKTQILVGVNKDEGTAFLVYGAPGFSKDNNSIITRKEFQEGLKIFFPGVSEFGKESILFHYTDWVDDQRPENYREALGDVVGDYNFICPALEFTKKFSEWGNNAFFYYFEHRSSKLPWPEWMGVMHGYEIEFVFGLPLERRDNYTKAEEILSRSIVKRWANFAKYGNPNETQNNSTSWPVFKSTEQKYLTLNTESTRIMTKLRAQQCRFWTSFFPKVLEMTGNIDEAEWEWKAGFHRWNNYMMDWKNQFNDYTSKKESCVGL
MEASURED METRIC: IC50

# input Would you please give the reported IC50 of C#CCNCc1cc2cc(OCc3ccccc3)ccc2[nH]1 with Cholinesterase (Homo sapiens, UniProt P06276)?
# output > 100 µM

* * *

# clearance per record follows
# MEASUREMENT PROTOCOL: Plasma clearance in iv dosed cynomolgus monkey
# Type: ADME, organism-based, Macaca fascicularis
// units = mL/min/kg; emit number, no label

Solved cases below.
>  <COMPOUND>
CC(C#Cc1cccc(Oc2ccc(F)cc2)c1)N(O)C(N)=O (stereo not drawn)

>  <MEASURED METRIC>
clearance

>  <UNIT SPEC>
mL/min/kg

>  <OBS VALUE>
1.3

$$$$
>  <COMPOUND>
CC(/C=C/c1cccc(Oc2ccc(F)cc2)c1)N(O)C(N)=O (stereo not drawn)

>  <MEASURED METRIC>
clearance

>  <UNIT SPEC>
mL/min/kg

>  <OBS VALUE>
2

$$$$

Would you kindly look at the next entry?
# input Supply recorded clearance for CC(c1cc2ccccc2s1)N(O)C(N)=O (stereo not drawn) here.
# output 14
